# System: HL-60
# assay-overview: Cytotoxicity against human HL60/TX1000 cell line by MTS assay
# Assay type: functional, cell-based
reported-endpoint: IC50 (nM)
Numbers only here, please. The scale is nM.

Worked examples, 2 molecules total:
# structure-as-smiles, IC50 / nM
data = [
    ("O=C(c1cccnc1)c1c[nH]c(C(=O)c2cn(Cc3ccc(Cl)cc3)c3ccccc23)n1", 500),
    ("O=C(c1nc(-c2ccccn2)c[nH]1)c1cn(Cc2ccc(Cl)cc2)c2ccccc12", 500),
]

Okay, now this molecule:
Reported IC50, molecule `COC(=O)c1c[nH]c(C(=O)c2cn(Cc3ccc(Cl)cc3)c3ccccc23)n1` : ____
500
